- System: MOLM-13 cells
- ASSAY_TEXT: Cell viability assay (CellTiter-Glo) in MOLM-13 cells, alone or with gilteritinib
- Assay type: cell-based
- EXPERIMENTAL_CONDITIONS: Homo sapiens, MOLM-13, 72 h, MOLM-13 cells, compound alone (without gilteritinib), three days, CellTiter-Glo; read-out: MOLM-13 IC50
ATTRIBUTE_MEASURED: IC50

Consider the worked cases shown below.
O=C(CN1CCC(n2cc(-c3cnc4ccccc4n3)cn2)CC1)NCCCNc1ccc2c(c1)C(=O)N(C1CCC(=O)NC1=O)C2=O (centres unmarked): > 1000 nM
O=C(CN1CCC(N2CCN(c3ccccn3)CC2)C1)NCc1ccc2c(c1)C(=O)N(C1CCC(=O)NC1=O)C2=O (centres unmarked): > 1000 nM
O=C1CCC(N2C(=O)c3ccc(NCCC[C@H]4C[C@H](n5cc(-c6cnc7ccc(N8C[C@H]9C[C@@H]8CN9)cc7n6)cn5)C4)cc3C2=O)C(=O)N1 (some centres unmarked): > 1000 nM

input: State, in one line, measured IC50 of CN1CCN(c2ccc3nc(-c4cnn([C@H]5C[C@@H](CCCNc6ccc7c(c6)C(=O)N(C6CCC(=O)NC6=O)C7=O)C5)c4)cnc3c2)CC1 (some centres unmarked)
output: 100 to 1000 nM

input: State, in one line, measured IC50 of O=C1CCC(N2C(=O)c3ccc(NCCC[C@H]4C[C@H](n5cc(-c6cnc7ccc(N8CCOCC8)cc7n6)cn5)C4)cc3C2=O)C(=O)N1 (some centres unmarked)
output: 10 to 100 nM

input: State, in one line, measured IC50 of O=C1CCC(N2Cc3cc(Nc4ccnc(Nc5ccc6c(c5)CC(N5CCC(n7cc(-c8cnc9ccccc9n8)cn7)CC5)C6)n4)ccc3C2=O)C(=O)N1 (centres unmarked)
output: 100 to 1000 nM

input: State, in one line, measured IC50 of O=C1CCC(N2C(=O)c3ccc(NCCC[C@H]4C[C@H](n5cc(-c6cnc7ccc(N8CCN(C9CCC9)CC8)cc7n6)cn5)C4)cc3C2=O)C(=O)N1 (some centres unmarked)
output: 10 to 100 nM

* * *

List of pIC50 values.
- Tested on: MV4;11 cells
- ASSAY_TEXT: Cell viability assay (CellTiter-Glo) in MV4;11 cells, alone or with gilteritinib
- Type: cell-based
- EXPERIMENTAL_CONDITIONS: Homo sapiens, MV4-11, 72 h, MV4;11 cells, compound with gilteritinib 10 nM, three days, CellTiter-Glo; read-out: MV4; 11 IC50 gilteritinib
pIC50: −log10 of the molar value.

input: State, in one line, measured pIC50 of O=C1CCC(N2Cc3cc(NC(=O)c4cccc(N5CCC(n6cc(-c7cnc8ccccc8n7)cn6)CC5)c4)ccc3C2=O)C(=O)N1 (centres unmarked)
output: > 8.00

input: State, in one line, measured pIC50 of O=C1CCC(N2C(=O)c3ccc(NC[C@H]4C[C@H](n5cc(N6CCOCC6)c(C6CC6)n5)C4)cc3C2=O)C(=O)N1 (some centres unmarked)
output: < 6.00

input: State, in one line, measured pIC50 of O=C1CCC(N2C(=O)c3ccc(NC[C@H]4C[C@H](n5cc(-c6cc(N7CCNCC7)ccn6)c(C6CC6)n5)C4)cc3C2=O)C(=O)N1 (some centres unmarked)
output: < 6.00

input: State, in one line, measured pIC50 of O=C1CCC(N2C(=O)c3ccc(NC[C@H]4C[C@H](n5cc(-c6cnc7c(N8CC(O)C8)cccc7n6)c(C6CC6)n5)C4)cc3C2=O)C(=O)N1 (some centres unmarked)
output: > 8.00

input: State, in one line, measured pIC50 of CN(C)c1cccnc1-c1cn([C@H]2C[C@H](CNc3ccc4c(c3)C(=O)N(C3CCC(=O)NC3=O)C4=O)C2)nc1C1CC1 (some centres unmarked)
output: > 8.00

input: State, in one line, measured pIC50 of O=C1CCC(N2C(=O)c3ccc(NC[C@H]4C[C@H](n5cc(-c6cccc(N[C@H]7CC[C@@H](O)CC7)n6)c(C6CC6)n5)C4)cc3C2=O)C(=O)N1 (some centres unmarked)
output: 6.00 to 7.00

input: State, in one line, measured pIC50 of O=C1CCC(N2C(=O)c3ccc(NC[C@H]4C[C@H](n5cc(-c6ccccn6)cn5)C4)cc3C2=O)C(=O)N1 (some centres unmarked)
output: < 6.00

input: State, in one line, measured pIC50 of Cc1ccnc(-c2cnn([C@H]3C[C@H](CCCNc4ccc5c(c4)C(=O)N(C4CCC(=O)NC4=O)C5=O)C3)c2)c1 (some centres unmarked)
output: > 8.00

input: State, in one line, measured pIC50 of O=C1CCC(N2C(=O)c3ccc(NCCCCCCn4cc(-c5cnc6ccc(C7CC7)cc6n5)cn4)cc3C2=O)C(=O)N1 (centres unmarked)
output: 7.00 to 8.00

input: State, in one line, measured pIC50 of O=C1CCC(N2C(=O)c3ccc(NCCCCCC(=O)N4CCC(c5cnc6ccccc6c5)CC4)cc3C2=O)C(=O)N1 (centres unmarked)
output: > 8.00

input: State, in one line, measured pIC50 of O=C1CCC(N2C(=O)c3ccc(NC[C@H]4C[C@H](n5cc(-c6cnc7ccc(N8CCOCC8)cc7n6)c(C6CC6)n5)C4)cc3C2=O)C(=O)N1 (some centres unmarked)
output: > 8.00

input: State, in one line, measured pIC50 of O=C1CCC(N2Cc3cc(OCCCCC(=O)N4CCC(n5cc(-c6cnc7ccccc7n6)cn5)CC4)ccc3C2=O)C(=O)N1 (centres unmarked)
output: 6.00 to 7.00

input: State, in one line, measured pIC50 of Cc1cccc(-c2cn([C@H]3C[C@H](CNc4ccc5c(c4)C(=O)N(C4CCC(=O)NC4=O)C5=O)C3)nc2C(F)F)n1 (some centres unmarked)
output: > 8.00

input: State, in one line, measured pIC50 of Cc1cncc(-c2cnn(CCCCCCNc3ccc4c(c3)C(=O)N(C3CCC(=O)NC3=O)C4=O)c2)c1 (centres unmarked)
output: 6.00 to 7.00
